Molecular target: human integrin αVβ6 (Homo sapiens, UniProt P06756+P18564)
Sequence (P06756 31-992 limits assumed): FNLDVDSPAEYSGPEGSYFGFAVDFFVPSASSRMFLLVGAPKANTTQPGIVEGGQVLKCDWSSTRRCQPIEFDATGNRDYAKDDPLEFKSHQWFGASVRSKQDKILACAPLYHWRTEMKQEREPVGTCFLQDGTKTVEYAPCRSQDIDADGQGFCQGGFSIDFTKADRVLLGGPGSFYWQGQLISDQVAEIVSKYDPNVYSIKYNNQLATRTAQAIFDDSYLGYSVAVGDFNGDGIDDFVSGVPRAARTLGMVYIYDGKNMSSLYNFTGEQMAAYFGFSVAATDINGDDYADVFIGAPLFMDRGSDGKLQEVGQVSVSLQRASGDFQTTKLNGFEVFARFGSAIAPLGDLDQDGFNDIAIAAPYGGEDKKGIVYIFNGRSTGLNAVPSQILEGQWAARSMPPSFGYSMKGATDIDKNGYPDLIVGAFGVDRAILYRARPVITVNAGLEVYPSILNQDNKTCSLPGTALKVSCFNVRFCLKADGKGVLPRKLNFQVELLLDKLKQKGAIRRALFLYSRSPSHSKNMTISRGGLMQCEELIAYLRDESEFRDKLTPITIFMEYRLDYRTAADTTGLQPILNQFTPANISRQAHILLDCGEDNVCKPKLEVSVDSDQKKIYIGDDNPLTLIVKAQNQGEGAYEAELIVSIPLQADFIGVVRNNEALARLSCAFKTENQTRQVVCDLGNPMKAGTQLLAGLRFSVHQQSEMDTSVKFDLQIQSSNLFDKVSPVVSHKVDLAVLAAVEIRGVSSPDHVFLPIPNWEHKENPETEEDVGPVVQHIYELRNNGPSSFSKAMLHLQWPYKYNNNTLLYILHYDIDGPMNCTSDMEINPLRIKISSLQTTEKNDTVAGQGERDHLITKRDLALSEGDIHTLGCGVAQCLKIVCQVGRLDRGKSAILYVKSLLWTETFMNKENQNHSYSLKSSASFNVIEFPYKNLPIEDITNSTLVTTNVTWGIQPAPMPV
Sequence (P18564 22-707 limits assumed): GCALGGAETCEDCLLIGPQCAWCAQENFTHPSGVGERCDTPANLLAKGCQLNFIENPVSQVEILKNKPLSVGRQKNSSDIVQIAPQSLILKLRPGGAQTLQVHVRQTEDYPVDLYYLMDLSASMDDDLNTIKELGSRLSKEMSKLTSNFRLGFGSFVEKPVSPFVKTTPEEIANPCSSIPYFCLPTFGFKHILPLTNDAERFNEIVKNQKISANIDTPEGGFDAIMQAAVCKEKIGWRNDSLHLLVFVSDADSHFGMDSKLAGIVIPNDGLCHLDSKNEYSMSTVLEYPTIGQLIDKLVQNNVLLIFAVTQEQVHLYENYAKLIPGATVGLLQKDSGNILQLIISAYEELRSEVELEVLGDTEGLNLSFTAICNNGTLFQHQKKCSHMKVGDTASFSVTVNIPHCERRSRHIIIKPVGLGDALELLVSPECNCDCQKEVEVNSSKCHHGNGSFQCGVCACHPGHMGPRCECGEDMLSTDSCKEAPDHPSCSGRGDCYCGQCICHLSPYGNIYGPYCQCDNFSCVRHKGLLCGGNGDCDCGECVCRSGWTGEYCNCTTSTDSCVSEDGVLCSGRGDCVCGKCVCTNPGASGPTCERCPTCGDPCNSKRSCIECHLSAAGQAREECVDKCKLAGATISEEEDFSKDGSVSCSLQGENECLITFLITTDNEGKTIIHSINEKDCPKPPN
Test: AlphaScreen proximity-based integrin binding assay with TGF-b1 LAP
Conditions: values given as ranges
pIC50: −log10 of the molar value.
pIC50: recorded values

Consider the worked cases shown below.
# compound, parameter.measured, observed
data = [
    ("O=C(O)[C@H](CCOCCCCc1ccc2c(n1)NCCC2)NC(=O)C1(c2c(Cl)cn[nH]c2=O)CC1", "pIC50", "≤ 6.30"),
    ("C[C@H](C(=O)N[C@@H](CCOCCCCc1ccc2c(n1)NCCC2)C(=O)O)c1ccccc1", "pIC50", "≤ 6.30"),
    ("N#Cc1c[nH]nc1C1(C(=O)N[C@@H](CCOCCCCc2ccc3c(n2)NCCC3)C(=O)O)CC1", "pIC50", "≤ 6.30"),
    ("NC(=O)c1cccc(F)c1C1(C(=O)N[C@@H](CCOCCCCc2ccc3c(n2)NCCC3)C(=O)O)CC1", "pIC50", "< 6.30"),
    ("COc1nccc(Cl)c1C1(C(=O)N[C@@H](CCOCCCCc2ccc3c(n2)NCCC3)C(=O)O)CC1", "pIC50", "≤ 6.30"),
    ("O=C(O)[C@H](CCOCCCCc1ccc2c(n1)NCCC2)NC(=O)C1(c2[nH]cnc2Cl)CC1", "pIC50", "≤ 6.30"),
]

API: the following record is the query input.
Per the record, [2H]C1([2H])C([2H])([2H])C1(C(=O)N[C@@H](CCOCCCCc1ccc2c(n1)NCCC2)C(=O)O)c1c(C)ncnc1Cl has pIC50 of < 6.30
